Biological target: C-terminal domain (CTD) of human STING (Homo sapiens, UniProt Q86WV6)
Sequence (Q86WV6 155-379): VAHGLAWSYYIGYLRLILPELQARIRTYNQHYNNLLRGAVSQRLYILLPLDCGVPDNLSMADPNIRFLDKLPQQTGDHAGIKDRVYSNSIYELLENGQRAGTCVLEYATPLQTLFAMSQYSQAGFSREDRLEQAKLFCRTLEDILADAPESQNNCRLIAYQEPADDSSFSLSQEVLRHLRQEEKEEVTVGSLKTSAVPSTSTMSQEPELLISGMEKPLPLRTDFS
Assay: STING binding FP assay III
Design: recombinant human STING protein (155-379)
Settings: 10 nM STING (FP assay III according to the text); read-out: STING binding FP assay II, IC50
property label: IC50 (nM)
A number alone suffices; assume nM.

Example cases with answers are listed next.
[[record]]
molecule = "CCn1nc(C)cc1C(=O)N=c1n(C)c2cc(C(N)=O)ccc2n1CCC(CCn1c(=NC(=O)c2cc(C)nn2CC)n(C)c2cc(C(N)=O)ccc21)OCC(=O)NCCOCCOCCOCCOCCC(=O)NCCOCCOCCNc1cccc2c1C(=O)N(C1CCC(=O)NC1=O)C2=O (centres unmarked)"
assay_value = 2.9

[[record]]
molecule = "CCn1nc(C)cc1C(=O)N=c1n(C)c2cc(C(N)=O)ccc2n1CCC(CCn1c(=NC(=O)c2cc(C)nn2CC)n(C)c2cc(C(N)=O)ccc21)OCC(=O)NCCOCCOCCOCCOCCC(=O)N1CCN(C2CCN(c3ccc(C(=O)NC4CCC(=O)NC4=O)c(OC)c3)CC2)CC1 (centres unmarked)"
assay_value = 10

[[record]]
molecule = "CCn1nc(C)cc1C(=O)Nc1nc2cc(C(N)=O)ccc2n1CCC(CCn1c(NC(=O)c2cc(C)nn2CC)nc2cc(C(N)=O)ccc21)OCC(=O)NCCOCCOCCOCC(=O)N[C@H](C(=O)N1C[C@H](O)C[C@H]1C(=O)NCc1ccc(-c2scnc2C)cc1)C(C)(C)C"
assay_value = 2.2

[[record]]
molecule = "CCn1nc(C)cc1C(=O)N=c1n(C)c2cc(C(N)=O)ccc2n1CCC(CCn1c(=NC(=O)c2cc(C)nn2CC)n(C)c2cc(C(N)=O)ccc21)OCC(=O)NCCOCCOCCOCCOCCC(=O)NCCCCC(=O)N[C@H]1C[C@@H](C(=O)N[C@@H]2CCCc3ccccc32)N(C(=O)[C@@H](NC(=O)[C@H](C)NC)C2CCCCC2)C1 (some centres unmarked)"
assay_value = 4.5


GET /values?readout=IC50&item= CCn1nc(C)cc1C(=O)N=c1n(C)c2cc(C(N)=O)ccc2n1CCC(CCn1c(=NC(=O)c2cc(C)nn2CC)n(C)c2cc(C(N)=O)ccc21)OCC(=O)NCCOCCOCCOCCOCCC(=O)N(C)CCOCCOCCOCCOCCC(=O)N[C@H](C(=O)N1C[C@H](O)C[C@H]1C(=O)N[C@@H](C)c1ccc(-c2scnc2C)cc1)C(C)(C)C (some centres unmarked)
4.5

====

Target: C-terminal domain (CTD) of human STING (Homo sapiens, UniProt Q86WV6)
Test: STING binding FP assay I
Parameters: recombinant human STING protein (155-379)
Settings: 35 nM STING, 4 nM Probe 1
pIC50: −log10 of the molar value.
property label: pIC50

[[record]]
compound = "CCOC(=O)COC(CCn1c(=NC(=O)c2cc(C)nn2CC)n(C)c2cc(C(N)=O)ccc21)CCn1c(=NC(=O)c2cc(C)nn2CC)n(C)c2cc(C(N)=O)ccc21 (centres unmarked)"
assay_value = "> 7.52"


# input for lookup
GET /values?readout=pIC50&item= CCn1nc(C)cc1C(=O)N=c1n(C)c2cc(C(N)=O)ccc2n1CCC(CCn1c(=NC(=O)c2cc(C)nn2CC)n(C)c2cc(C(N)=O)ccc21)OCC(=O)NCCOCCOCCOCC(=O)N[C@H](C(=O)N1C[C@H](O)C[C@H]1C(=O)NCc1ccc(-c2scnc2C)cc1)C(C)(C)C (some centres unmarked)
> 7.52

====

Biological target: C-terminal domain (CTD) of human STING (Homo sapiens, UniProt Q86WV6)
Experiment: STING binding FP assay III
Design: recombinant human STING protein (155-379)
Details: 10 nM STING (FP assay III according to the text); read-out: STING binding FP assay II, IC50
Method: The interaction between molecules and the C-terminal domain (CTD) of human STING was evaluated using a competition binding assay. In this assay, recombinant human STING protein (155-379) and a STING binding fluorescent probe were employed. […] As a result, emitted light retains its plane of polarization, leading to an increase in fluorescence polarization. […] Change in polarization was measured, allowing a comparative evaluation of the binding affinities of different compounds to the target protein. […]
property label: IC50 (nM)
A number alone suffices; assume nM.

[[record]]
compound = "CCn1nc(C)cc1C(=O)N=c1n(C)c2cc(C(N)=O)ccc2n1CCC(CCn1c(=NC(=O)c2cc(C)nn2CC)n(C)c2cc(C(N)=O)ccc21)OCC(=O)NCCOCCOCCOCCOCCC(=O)NCCOCCOCCOCC(=O)N[C@H]1C[C@@H](C(=O)N[C@@H]2CCCc3ccccc32)N(C(=O)[C@@H](NC(=O)[C@H](C)NC)C2CCCCC2)C1 (stereo partly shown) [Example 18]"
assay_value = 3.5

[[record]]
compound = "CCn1nc(C)cc1C(=O)N=c1n(C)c2cc(C(N)=O)ccc2n1CCC(CCn1c(=NC(=O)c2cc(C)nn2CC)n(C)c2cc(C(N)=O)ccc21)OCC(=O)NCCOCCOCCOCCOCCC(=O)NCCOCCNc1ccc(C(=O)NC2CCC(=O)NC2=O)c(OC)c1 (stereo not shown) [Example 34]"
assay_value = 3.7


GET /values?readout=IC50&item= CCn1nc(C)cc1C(=O)N=c1n(C)c2cc(C(N)=O)ccc2n1CCC(CCn1c(=NC(=O)c2cc(C)nn2CC)n(C)c2cc(C(N)=O)ccc21)OCC(=O)NCCOCCOCCOCCOCCC(=O)NCCOCCOCCOCCOCCOCCNc1cccc2c1C(=O)N(C1CCC(=O)NC1=O)C2=O (stereo not shown) [Example 25]
3.1

GET /values?readout=IC50&item= CCn1nc(C)cc1C(=O)N=c1n(C)c2cc(C(N)=O)ccc2n1CCC(CCn1c(=NC(=O)c2cc(C)nn2CC)n(C)c2cc(C(N)=O)ccc21)OCC(=O)NCCOCCOCCOCCOCCC(=O)N1CCN(C(=O)CCC(=O)NCCCCOc2cc(-c3scnc3C)ccc2CNC(=O)[C@@H]2C[C@@H](O)CN2C(=O)[C@@H](NC(=O)C2(F)CC2)C(C)(C)C)CC1 (stereo partly shown) [Example 19]
7.1

GET /values?readout=IC50&item= CCn1nc(C)cc1C(=O)N=c1n(C)c2cc(C(N)=O)ccc2n1CCC(CCn1c(=NC(=O)c2cc(C)nn2CC)n(C)c2cc(C(N)=O)ccc21)OCC(=O)NCCOCCOCCOCCOCCC(=O)NCCC1CCN(c2ccc(C(=O)NC3CCC(=O)NC3=O)c(F)c2)CC1 (stereo not shown) [Example 38]
2.6

GET /values?readout=IC50&item= CCn1nc(C)cc1C(=O)N=c1n(C)c2cc(C(N)=O)ccc2n1CCC(CCn1c(=NC(=O)c2cc(C)nn2CC)n(C)c2cc(C(N)=O)ccc21)OCC(=O)NCCOCCOCCOCCOCCC(=O)NCCOCCOCC(=O)N[C@H]1C[C@@H](C(=O)N[C@@H]2CCCc3ccccc32)N(C(=O)[C@@H](NC(=O)[C@H](C)NC)C2CCCCC2)C1 (stereo partly shown) [Example 26]
4.4

GET /values?readout=IC50&item= CCn1nc(C)cc1C(=O)N=c1n(C)c2cc(C(N)=O)ccc2n1CCC(CCn1c(=NC(=O)c2cc(C)nn2CC)n(C)c2cc(C(N)=O)ccc21)OCC(=O)NCCOCCOCCOCCOCCOCC(=O)N[C@H]1C[C@@H](C(=O)N[C@@H]2CCCc3ccccc32)N(C(=O)[C@@H](NC(=O)[C@H](C)NC)C2CCCCC2)C1 (stereo partly shown) [Example 13]
4.1

====

Listed next: entries and their corresponding DC50.
Target: UniProt Q86WV6
Test: Western Blot analysis for STING degradation (DC50) in HFF-1 cells
Format: cell-based
Design: host or cells: HFF-1 human foreskin fibroblasts
Settings: 24h; reference protein beta-actin

[[record]]
molecule = "CCn1nc(C)cc1C(=O)N=c1n(C)c2cc(C(N)=O)ccc2n1CCC(CCn1c(=NC(=O)c2cc(C)nn2CC)n(C)c2cc(C(N)=O)ccc21)OCC(=O)NCCOCCOCCOCCOCCC(=O)NCCOCCOCCOCCOCCOCCNc1cccc2c1C(=O)N(C1CCC(=O)NC1=O)C2=O (stereo not drawn) [Example 25]"
target_of_assay = "UniProt Q86WV6"
assay_value = "< 200 nM"

[[record]]
molecule = "CCn1nc(C)cc1C(=O)N=c1n(C)c2cc(C(N)=O)ccc2n1CCC(CCn1c(=NC(=O)c2cc(C)nn2CC)n(C)c2cc(C(N)=O)ccc21)OCC(=O)NCCOCCOCCOCCOCCC(=O)NCCOCCOCCOCCOCCNc1cccc2c1C(=O)N(C1CCC(=O)NC1=O)C2=O (stereo not drawn) [Example 16]"
target_of_assay = "UniProt Q86WV6"
assay_value = "< 200 nM"

[[record]]
molecule = "CCn1nc(C)cc1C(=O)N=c1n(C)c2cc(C(N)=O)ccc2n1CCC(CCn1c(=NC(=O)c2cc(C)nn2CC)n(C)c2cc(C(N)=O)ccc21)OCC(=O)NCCOCCOCCOCCOCCC(=O)NCCOCCOCCNc1cccc2c1C(=O)N(C1CCC(=O)NC1=O)C2=O (stereo not drawn) [Example 23]"
target_of_assay = "UniProt Q86WV6"
assay_value = "200 to 1000 nM"

[[record]]
molecule = "CCn1nc(C)cc1C(=O)N=c1n(C)c2cc(C(N)=O)ccc2n1CCC(CCn1c(=NC(=O)c2cc(C)nn2CC)n(C)c2cc(C(N)=O)ccc21)OCC(=O)NCCOCCOCCOCCOCCC(=O)NCCOCCNc1cccc2c1C(=O)N(C1CCC(=O)NC1=O)C2=O (stereo not drawn) [Example 6]"
target_of_assay = "UniProt Q86WV6"
assay_value = "200 to 1000 nM"

[[record]]
molecule = "CCn1nc(C)cc1C(=O)N=c1n(C)c2cc(C(N)=O)ccc2n1CCC(CCn1c(=NC(=O)c2cc(C)nn2CC)n(C)c2cc(C(N)=O)ccc21)OCC(=O)NCCOCCOCCOCCOCCOCCNc1cccc2c1C(=O)N(C1CCC(=O)NC1=O)C2=O (stereo not drawn) [Example 3]"
target_of_assay = "UniProt Q86WV6"
assay_value = "200 to 1000 nM"


# input for lookup
GET /values?readout=DC50&item= CCn1nc(C)cc1C(=O)N=c1n(C)c2cc(C(N)=O)ccc2n1CCC(CCn1c(=NC(=O)c2cc(C)nn2CC)n(C)c2cc(C(N)=O)ccc21)OCC(=O)NCCOCCOCCOCCOCCC(=O)NCCOCCOCCOCCNc1cccc2c1C(=O)N(C1CCC(=O)NC1=O)C2=O (stereo not drawn) [Example 11]
< 200 nM
